Molecular target: IRAK-M (Homo sapiens, UniProt Q9Y616)
Assay: IRAK-M binding inhibitory activity (KINOMEscan active site-dependent competitive assay)
Design: purchased Eurofins Discover X
Conditions: concentration of the test compound 1 μM; first symbol of cell; read-out: IRAK-M binding inhibition activity % Ctrl
observable: remaining binding at 1 µM

Look over these answered cases.
compound	observable	result
c1ccc(CCNc2ncnc3cc(-c4ccccc4)sc23)cc1 [Ref. example 17]	remaining binding at 1 µM	≥ 75%
CN[C@@H](C)C(=O)N[C@H](C(=O)N1CCN(C(=O)c2c(Cl)c3cc(F)ccc3n2CC(=O)N2CCC[C@H]2COc2cc(CN3CCC(Oc4ccnc5ccsc45)CC3)on2)CC1)C1CCCCC1 [Example 40]	remaining binding at 1 µM	25 to 50%
CN[C@@H](C)C(=O)N[C@H](C(=O)N1CCN(C(=O)c2cc3cc(F)c(F)cc3n2CC(=O)N2CCC[C@@H]2COc2cc(CN3CCC(Oc4ccnc5ccsc45)CC3)on2)CC1)C1CCCCC1 [Example 31]	remaining binding at 1 µM	25 to 50%

Problem: Given the entry CN[C@@H](C)C(=O)N[C@H](C(=O)N1CCN(C(=O)c2ccc3c(c2)cc(C)n3CCOCCOCCOCCOc2cc(CN3CCC(Oc4ccnc5ccsc45)CC3)on2)CC1)C1CCCCC1 [Example 53] , report its measured remaining binding at 1 µM.
Result: < 25%

Problem: Continue with CN[C@@H](C)C(=O)N[C@H](C(=O)N1CCN(C(=O)c2c(Cl)c3ccccc3n2CC(=O)N(C)CCOCCOCCOCCOc2cc(CN3CCC(Oc4ccnc5ccsc45)CC3)on2)CC1)C1CCCCC1 [Example 32]
Result: < 25%

---

Molecular target: IRAK-M (Homo sapiens, UniProt Q9Y616)
Assay: IRAK-M binding inhibitory activity (KINOMEscan active site-dependent competitive assay)
Set-up: purchased Eurofins Discover X
Conditions: concentration of the test compound 1 μM; first symbol of cell; read-out: IRAK-M binding inhibition activity % Ctrl
observable: remaining binding at 1 µM

Solved cases (3 shown):
compound	remaining binding at 1 µM
COc1ccc(S(=O)(=O)N2CCC(Oc3ncnc4ccsc34)CC2)cc1	25 to 50%
Cc1cc2nccc(OC3CCN(C(C)c4cc(O)no4)CC3)c2s1 (stereo not shown)	25 to 50%
CN[C@@H](C)C(=O)N[C@H](C(=O)N1CCN(C(=O)c2c(F)c3ccccc3n2CC(=O)N(C)CCOCCOCCOCCOc2cc(CN3CCC(Oc4ccnc5ccsc45)CC3)on2)CC1)C1CCCCC1	≥ 75%

Now look at this entry.
Problem: Value lookup for remaining binding at 1 µM; key = "Cc1cc2nccc(OC3CCN(Cc4cc(O)no4)CC3)c2s1"
Result: 25 to 50%

---

# pIC50 per entry
Biological target: IRAK-M (Homo sapiens, UniProt Q9Y616)
Sequence (Q9Y616 1-596): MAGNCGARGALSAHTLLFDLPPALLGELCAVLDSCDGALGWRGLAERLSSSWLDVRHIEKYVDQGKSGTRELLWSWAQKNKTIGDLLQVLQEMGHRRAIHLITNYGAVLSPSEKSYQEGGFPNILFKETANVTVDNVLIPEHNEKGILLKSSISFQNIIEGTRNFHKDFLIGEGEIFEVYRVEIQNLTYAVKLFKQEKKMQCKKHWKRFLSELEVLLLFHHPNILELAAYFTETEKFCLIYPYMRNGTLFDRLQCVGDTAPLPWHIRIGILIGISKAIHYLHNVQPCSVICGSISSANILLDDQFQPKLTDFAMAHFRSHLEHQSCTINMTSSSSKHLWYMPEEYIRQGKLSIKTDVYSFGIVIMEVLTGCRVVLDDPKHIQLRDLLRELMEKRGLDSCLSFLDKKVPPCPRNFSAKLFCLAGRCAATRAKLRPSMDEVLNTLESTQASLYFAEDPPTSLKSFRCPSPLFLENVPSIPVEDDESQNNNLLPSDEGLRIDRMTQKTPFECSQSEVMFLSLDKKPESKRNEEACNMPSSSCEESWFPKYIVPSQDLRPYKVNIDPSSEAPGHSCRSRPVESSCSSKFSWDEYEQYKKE
Assay: IRAK-M binding inhibitory activity (KINOMEscan active site-dependent competitive assay)
Details: second symbol of cell; read-out: IRAK-M binding inhibition IC50 value
pIC50: −log10 of the molar value.

Previously resolved entries follow.
compound	observable	result
C=CCOc1cc(CN2CCC(Oc3ccnc4ccsc34)CC2)n(C)n1	pIC50	6.52 to 7.00
CN[C@@H](C)C(=O)N[C@H](C(=O)N1CCN(C(=O)c2c(C(=O)NCCOCCOCCOc3ccc(S(=O)(=O)N4CCC(Oc5ncnc6ccsc56)CC4)cc3)c3ccc(OC)cc3n2C)CC1)C1CCCCC1	pIC50	6.00 to 6.52
O=C1CCC(N2C(=O)c3cccc(OCCOCCOc4cc(CN5CCC(Oc6ccnc7ccsc67)CC5)on4)c3C2=O)C(=O)N1 (stereo not drawn)	pIC50	6.52 to 7.00
CN[C@@H](C)C(=O)N[C@H](C(=O)N1CCN(C(=O)c2cc3cc(F)ccc3n2CC(=O)N2CCC[C@H]2COc2cc(CN3CCC(Oc4ccnc5ccsc45)CC3)on2)CC1)C1CCCCC1	pIC50	6.00 to 6.52

Problem: Form: Entry = "CN[C@@H](C)C(=O)N[C@H](C(=O)N1CCN(C(=O)c2c(C(=O)NCCOCCOCCOc3cc(CN4CCC(Oc5ccnc6ccsc56)CC4)on3)c3cc(F)c(F)cc3n2C)CC1)C1CCCCC1" | System = IRAK-M (Homo sapiens, UniProt Q9Y616) | pIC50 = ____
Result: 6.00 to 6.52

Problem: Same again, this time with O=C1CCC(N2C(=O)c3cccc(OCCOCCOCCOc4cc(CN5CCC(Oc6ccnc7ccsc67)CC5)on4)c3C2=O)C(=O)N1 (stereo not drawn)
Result: 6.00 to 6.52

---

// reported remaining binding at 1 µM for each item listed
Biological target: IRAK-M (Homo sapiens)
Assay: IRAK-M binding inhibitory activity (KINOMEscan active site-dependent competitive assay)
Set-up: purchased Eurofins Discover X
Conditions: concentration of the test compound 1 μM; first symbol of cell; read-out: IRAK-M binding inhibition activity % Ctrl

Use these answered entries as a reference point.
compound	assayed-target	remaining binding at 1 µM
CN[C@@H](C)C(=O)N[C@H](C(=O)N1CCN(C(=O)c2cc3c(OCCOCCOCCOc4cc(CN5CCC(Oc6ccnc7ccsc67)CC5)on4)c(F)c(F)cc3n2C)CC1)C1CCCCC1 [Example 52]	IRAK-M (Homo sapiens)	< 25%
Cc1ncsc1-c1ccc(CNC(=O)[C@@H]2C[C@@H](O)CN2C(=O)[C@H](C(C)C)N2Cc3ccccc3C2=O)c(OCCOCCOCCOc2cc(CN3CCC(Oc4ccnc5ccsc45)CC3)on2)c1 [Example 62]	IRAK-M (Homo sapiens)	50 to 75%

Alright, here's another compound for you.
Problem: Would you mind telling me what remaining binding at 1 µM value was observed for Cc1cnn(C)c1S(=O)(=O)N1CCC(Oc2ncnc3ccsc23)CC1 [Ref. example 61] ?
Result: ≥ 75%

---

List of remaining binding at 1 µM values.
Target: IRAK-M (Homo sapiens)
Assay: IRAK-M binding inhibitory activity (KINOMEscan active site-dependent competitive assay)
Parameters: purchased Eurofins Discover X
Conditions: concentration of the test compound 1 μM; first symbol of cell; read-out: IRAK-M binding inhibition activity % Ctrl

Below, each entry is followed by its recorded remaining binding at 1 µM result.
COCCS(=O)(=O)N1CCC(Oc2ncnc3ccsc23)CC1 25 to 50%
O=S(=O)(CCc1ccccc1)N1CCC(Oc2ncnc3ccsc23)CC1 < 25%
Cn1nccc1CN1CCC(Oc2ccnc3ccsc23)CC1 25 to 50%

Here's the next entry for you.
Problem: Find remaining binding at 1 µM (IRAK-M (Homo sapiens)) for the entry "O=S(=O)(c1ccccc1F)N1CCC(Oc2ncnc3ccsc23)CC1"
Result: 25 to 50%

---

Target: IRAK-M (Homo sapiens, UniProt Q9Y616)
Sequence (Q9Y616 1-596): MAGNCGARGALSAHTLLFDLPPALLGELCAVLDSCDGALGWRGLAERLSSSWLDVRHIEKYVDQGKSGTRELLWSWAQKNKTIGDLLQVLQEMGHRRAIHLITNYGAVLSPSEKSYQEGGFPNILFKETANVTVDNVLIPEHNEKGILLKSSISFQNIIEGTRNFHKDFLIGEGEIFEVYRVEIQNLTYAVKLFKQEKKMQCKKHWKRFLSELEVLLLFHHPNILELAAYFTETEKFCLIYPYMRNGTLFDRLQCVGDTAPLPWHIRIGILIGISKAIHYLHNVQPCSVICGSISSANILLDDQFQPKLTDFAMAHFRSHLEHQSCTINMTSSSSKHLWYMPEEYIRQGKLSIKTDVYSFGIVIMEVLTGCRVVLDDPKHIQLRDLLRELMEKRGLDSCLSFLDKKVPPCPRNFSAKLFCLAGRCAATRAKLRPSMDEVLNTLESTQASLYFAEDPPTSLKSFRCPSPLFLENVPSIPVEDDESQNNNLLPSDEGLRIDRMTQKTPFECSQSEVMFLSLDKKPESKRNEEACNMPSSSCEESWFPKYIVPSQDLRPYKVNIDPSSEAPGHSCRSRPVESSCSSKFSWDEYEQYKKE
Assay: IRAK-M binding inhibitory activity (KINOMEscan active site-dependent competitive assay)
Design: purchased Eurofins Discover X
Conditions: concentration of the test compound 1 μM; first symbol of cell; read-out: IRAK-M binding inhibition activity % Ctrl
observable: remaining binding at 1 µM

Answered cases to consult:
molecule	remaining binding at 1 µM
COc1ccccc1S(=O)(=O)N1CCC(Oc2ncnc3ccsc23)CC1 [Ref. example 46]	< 25%
O=C1OCc2cc(Nc3ncnc4ccsc34)ccc21 [Ref. example 29]	25 to 50%
CN[C@@H](C)C(=O)N[C@H](C(=O)N1CCN(C(=O)c2c(C)c3cc(F)ccc3n2CC(=O)N2CCC[C@H]2COc2cc(CN3CCC(Oc4ccnc5ccsc45)CC3)on2)CC1)C1CCCCC1 [Example 39]	25 to 50%

Problem: // remaining binding at 1 µM lookup, key: COc1cccc(S(=O)(=O)N2CCC(Oc3ncnc4ccsc34)CC2)c1 [Ref. example 54]
Result: 25 to 50%

Problem: What about O=S(=O)(c1ccccc1OC(F)(F)F)N1CCC(Oc2ncnc3ccsc23)CC1 [Ref. example 50] ?
Result: 25 to 50%

Problem: Similarly, CN[C@@H](C)C(=O)N[C@H](C(=O)N1CCN(C(=O)c2c(C)c3cc(F)ccc3n2CC(=O)N(C)CCOCCOCCOCCOc2cc(CN3CCC(Oc4ccnc5ccsc45)CC3)on2)CC1)C1CCCCC1 [Example 33] ?
Result: < 25%

Problem: Query O=S(=O)(c1ccc(F)cc1)N1CCC(Oc2ncnc3ccsc23)CC1 [Ref. example 53] next
Result: 25 to 50%

Problem: Query NC(=O)c1cccc(Nc2ncnc3ccsc23)c1 [Ref. example 20] next
Result: 50 to 75%

Problem: Try this molecule next: c1ccc(-c2cc3ncnc(NCC4CC4)c3s2)cc1 [Ref. example 14]
Result: 25 to 50%

Problem: Can you check CN[C@@H](C)C(=O)N[C@H](C(=O)N1CCC[C@H]1c1nc(C(=O)c2cccc(OCCOCCOc3cc(CN4CCC(Oc5ccnc6ccsc56)CC4)on3)c2)cs1)C1CCCCC1 [Example 58] next?
Result: < 25%

Problem: Note, next up: CN[C@@H](C)C(=O)N[C@H](C(=O)N1CCN(C(=O)c2c(OCCOCCOc3cc(CN4CCC(Oc5ccnc6ccsc56)CC4)on3)c3cc(F)c(F)cc3n2C)CC1)C1CCCCC1 [Example 22]
Result: 25 to 50%

Values compiled from patent US20220402935A1.
